Cited source for all entries: patent US12319672B2

Target: human Gal-1 (hGal-1)
Sequence (P09382 2-135 limits assumed): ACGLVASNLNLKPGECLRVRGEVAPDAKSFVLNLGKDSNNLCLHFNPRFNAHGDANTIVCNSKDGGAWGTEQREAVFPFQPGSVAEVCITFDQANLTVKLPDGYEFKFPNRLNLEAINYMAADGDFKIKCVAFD
Experiment: Competitive binding assay: binding of biotinylated hGal-1 to microplate-adsorbed asialofetuin (ASF)
Conditions: Activities on hGal-1; mean values of several measurements
Procedure: Evaluation of Compound Inhibitory Activity (IC50) The inhibitory activity of compounds is determined in competitive binding assays. This spectrophotometric assay measures the binding of biotinylated human Gal-3 (hGal-3) or human Gal-1 (hGal-1), respectively, to a microplate-adsorbed glycoprotein, asialofetuin (ASF) (Proc Natl Acad Sci USA. 2013 Mar. 26; 110(13):5052-7.). […] The calculated IC50 values may fluctuate depending on the daily assay performance. […]
pIC50: −log10 of the molar value.
measured.property: pIC50

compound: CO[C@@H]1[C@@H](n2cc(-c3ccc(C)c(F)c3F)nn2)[C@@H](O)[C@@H](CO)O[C@@H]1Cc1cc(C2CCOCC2)on1 [Ex 1.186]
pIC50: 5.21

P: CO[C@@H]1[C@@H](n2cc(-c3cc(F)c(F)c(F)c3)nn2)[C@@H](O)[C@@H](CO)O[C@@H]1Cc1cc(C2(O)CCN(C(=O)OC(C)(C)C)CC2)on1 [Ex 1.132]
Q: CO[C@@H]1[C@@H](n2cc(-c3cc(F)c(F)c(F)c3)nn2)[C@@H](O)[C@@H](CO)O[C@@H]1C[C@@H]1CC(C2CCCCC2)=NO1 [Ex 1.10]
Smaller pIC50 value, P vs Q ? Selection: enter the item's label.
Q
